target: Tripartite terminase subunit 3 (Human betaherpesvirus 5) (UniProt P16732); assay: Inhibition of human cytomegalovirus pUL89 endonuclease activity using 60 bp dsDNA substrate at 20 uM incubated for 30 mins by ELISA-based biochemical assay relative to control
Sequence (P16732 whole entry): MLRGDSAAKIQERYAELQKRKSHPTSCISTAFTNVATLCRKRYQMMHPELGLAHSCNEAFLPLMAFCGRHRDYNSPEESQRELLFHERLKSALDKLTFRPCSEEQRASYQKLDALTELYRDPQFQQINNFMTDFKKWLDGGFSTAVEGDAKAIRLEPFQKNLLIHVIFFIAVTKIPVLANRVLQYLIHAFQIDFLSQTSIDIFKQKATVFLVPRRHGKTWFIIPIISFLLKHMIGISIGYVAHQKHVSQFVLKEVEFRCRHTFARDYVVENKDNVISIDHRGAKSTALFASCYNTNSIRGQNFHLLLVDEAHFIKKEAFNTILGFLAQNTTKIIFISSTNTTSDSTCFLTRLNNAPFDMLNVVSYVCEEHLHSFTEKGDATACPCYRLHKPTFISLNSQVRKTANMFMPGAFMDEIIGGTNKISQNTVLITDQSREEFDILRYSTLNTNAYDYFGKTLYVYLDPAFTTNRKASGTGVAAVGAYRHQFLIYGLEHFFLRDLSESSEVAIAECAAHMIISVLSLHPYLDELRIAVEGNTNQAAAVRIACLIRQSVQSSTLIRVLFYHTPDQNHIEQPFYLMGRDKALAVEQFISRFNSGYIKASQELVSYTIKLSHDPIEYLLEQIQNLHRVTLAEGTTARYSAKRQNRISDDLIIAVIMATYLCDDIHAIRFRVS
The recorded inhibition of each item maps onto one of these classes: LOW: < 20%; MID: ≥ 20% and < 60%; HIGH: ≥ 60%

Enquiry: State the class of the molecule shown: O=c1cc(Sc2cccc(-c3ccc(F)cc3)c2)[nH]c(=O)n1O
Return: LOW

Enquiry: State the class of the molecule shown: CCn1c(Sc2cccc(F)c2)cc(=O)n(O)c1=O
Return: MID

Enquiry: State the class of the molecule shown: O=c1cc(Sc2cccc(-c3ccc(C(F)(F)F)cc3)c2)[nH]c(=O)n1O
Return: MID

Enquiry: State the class of the molecule shown: CCn1c(Sc2ccc(Br)cc2)cc(=O)n(O)c1=O
Return: HIGH

Enquiry: State the class of the molecule shown: O=c1cc(Sc2ccc(-c3ccc(Cl)cc3)cc2)[nH]c(=O)n1O
Return: LOW

Enquiry: State the class of the molecule shown: O=c1cc(Sc2ccccc2Br)[nH]c(=O)n1O
Return: MID

Enquiry: State the class of the molecule shown: O=c1cc(Sc2ccc(C(F)(F)F)cc2)[nH]c(=O)n1O
Return: LOW

Enquiry: State the class of the molecule shown: CCn1c(Sc2cccc(Br)c2)cc(=O)n(O)c1=O
Return: HIGH

Enquiry: State the class of the molecule shown: CCc1ccc(Sc2cc(=O)n(O)c(=O)n2C)cc1
Return: HIGH

Enquiry: State the class of the molecule shown: O=c1cc(Sc2ccc(-c3ccc(C(F)(F)F)cc3)cc2)[nH]c(=O)n1O
Return: LOW

Enquiry: State the class of the molecule shown: CCn1c(Sc2ccccc2Br)cc(=O)n(O)c1=O
Return: HIGH

Enquiry: State the class of the molecule shown: O=c1cc(Sc2ccccc2)[nH]c(=O)n1O
Return: MID

Enquiry: State the class of the molecule shown: O=c1cc(Sc2cccc(Br)c2)[nH]c(=O)n1O
Return: LOW

Enquiry: State the class of the molecule shown: Cn1c(Sc2cccc(Cl)c2)cc(=O)n(O)c1=O
Return: MID

Enquiry: State the class of the molecule shown: O=c1cc(Sc2cccc(F)c2)[nH]c(=O)n1O
Return: MID

Enquiry: State the class of the molecule shown: O=c1cc(Sc2ccc(-c3ccc(F)cc3)cc2)[nH]c(=O)n1O
Return: LOW

Enquiry: State the class of the molecule shown: CCn1c(Sc2ccccc2F)cc(=O)n(O)c1=O
Return: HIGH

Enquiry: State the class of the molecule shown: O=c1cc(Sc2ccc(O)cc2)[nH]c(=O)n1O
Return: MID

Enquiry: State the class of the molecule shown: Cn1c(Sc2cccc(F)c2)cc(=O)n(O)c1=O
Return: MID

Enquiry: State the class of the molecule shown: COc1cccc(Sc2cc(=O)n(O)c(=O)[nH]2)c1
Return: HIGH

Enquiry: State the class of the molecule shown: Cn1c(Sc2ccccc2)cc(=O)n(O)c1=O
Return: HIGH

Enquiry: State the class of the molecule shown: COc1ccc(-c2cccc(Sc3cc(=O)n(O)c(=O)[nH]3)c2)cc1F
Return: LOW

Enquiry: State the class of the molecule shown: Cn1c(Sc2ccc(F)cc2)cc(=O)n(O)c1=O
Return: HIGH

====

test: Apparent permeability of the compound incubated for 5 hrs by LC-MS/MS analysis based PAMPA method; type: ADME; settings: pampa, 5 h
endpointLabel: Papp

Enquiry: Entry CCn1c(Sc2ccc(F)cc2)cc(=O)n(O)c1=O : reported Papp = ?
Return: 4.1 10^-6 cm/s

Enquiry: Entry Cn1c(Sc2cccc(F)c2)cc(=O)n(O)c1=O : reported Papp = ?
Return: 2.5 10^-6 cm/s

Enquiry: Entry CCc1ccccc1Sc1cc(=O)n(O)c(=O)n1C : reported Papp = ?
Return: 5.8 10^-6 cm/s

Enquiry: Entry COc1cccc(Sc2cc(=O)n(O)c(=O)n2C)c1 : reported Papp = ?
Return: 2.4 10^-6 cm/s

Enquiry: Entry Cn1c(Sc2ccc(F)cc2)cc(=O)n(O)c1=O : reported Papp = ?
Return: 3 10^-6 cm/s

Enquiry: Entry CCc1ccc(Sc2cc(=O)n(O)c(=O)n2C)cc1 : reported Papp = ?
Return: 6.6 10^-6 cm/s

Enquiry: Entry CCn1c(Sc2cccc(F)c2)cc(=O)n(O)c1=O : reported Papp = ?
Return: 3.4 10^-6 cm/s

Enquiry: Entry CCn1c(Sc2cccc(Cl)c2)cc(=O)n(O)c1=O : reported Papp = ?
Return: 5.1 10^-6 cm/s

Enquiry: Entry Cn1c(Sc2cccc3ccccc23)cc(=O)n(O)c1=O : reported Papp = ?
Return: 5.1 10^-6 cm/s

Enquiry: Entry O=c1cc(Sc2ccc([N+](=O)[O-])cc2)[nH]c(=O)n1O : reported Papp = ?
Return: 0.017 10^-6 cm/s

Enquiry: Entry COc1cccc(Sc2cc(=O)n(O)c(=O)[nH]2)c1 : reported Papp = ?
Return: 0.21 10^-6 cm/s

Enquiry: Entry Cn1c(Sc2ccc(Cl)cc2)cc(=O)n(O)c1=O : reported Papp = ?
Return: 4.5 10^-6 cm/s

====

Would you kindly list pIC50 for each of these compounds?
Keep in mind that pIC50 stands for -log10 of concentration in molar terms.

Enquiry: Form field: pIC50 recorded for CCn1c(Sc2cccc(Cl)c2)cc(=O)n(O)c1=O with Tripartite terminase subunit 3 (Human betaherpesvirus 5) (enter value)
Return: 5.24

Enquiry: Form field: pIC50 recorded for CCc1ccc(Sc2cc(=O)n(O)c(=O)n2C)cc1 with Tripartite terminase subunit 3 (Human betaherpesvirus 5) (enter value)
Return: 4.93

Enquiry: Form field: pIC50 recorded for Cn1c(Sc2cccc(Br)c2)cc(=O)n(O)c1=O with Tripartite terminase subunit 3 (Human betaherpesvirus 5) (enter value)
Return: 5.19

Enquiry: Form field: pIC50 recorded for Cc1ccc(-c2ccc(Nc3cc(=O)n(O)c(=O)n3C)cc2)cc1 with Tripartite terminase subunit 3 (Human betaherpesvirus 5) (enter value)
Return: 5.48

Enquiry: Form field: pIC50 recorded for Cn1c(Sc2cccc(F)c2)cc(=O)n(O)c1=O with Tripartite terminase subunit 3 (Human betaherpesvirus 5) (enter value)
Return: 4.62

Enquiry: Form field: pIC50 recorded for Cn1c(Sc2ccc(F)cc2)cc(=O)n(O)c1=O with Tripartite terminase subunit 3 (Human betaherpesvirus 5) (enter value)
Return: 4.92

Enquiry: Form field: pIC50 recorded for CCn1c(Sc2cccc(F)c2)cc(=O)n(O)c1=O with Tripartite terminase subunit 3 (Human betaherpesvirus 5) (enter value)
Return: 4.64

Enquiry: Form field: pIC50 recorded for O=c1cc(Sc2ccc([N+](=O)[O-])cc2)[nH]c(=O)n1O with Tripartite terminase subunit 3 (Human betaherpesvirus 5) (enter value)
Return: 5.44

Enquiry: Form field: pIC50 recorded for Cc1ccc(-c2cccc(Nc3cc(=O)n(O)c(=O)[nH]3)c2)c(C)c1 with Tripartite terminase subunit 3 (Human betaherpesvirus 5) (enter value)
Return: 5.46

Enquiry: Form field: pIC50 recorded for COc1cccc(Sc2cc(=O)n(O)c(=O)[nH]2)c1 with Tripartite terminase subunit 3 (Human betaherpesvirus 5) (enter value)
Return: 5.72

====

assay: Cytotoxicity against human HEL 299 cells assessed as cell viability at 10 uM incubated for 168 hrs by MTS-based tetrazolium reduction assay relative to control; details: HEL 299 cells, read-out: Activity
Would you kindly list viability at 168 h, 10 µM for each of these compounds?
Use % as the unit, but write only the number.

Enquiry: Entry Cn1c(Sc2cccc3ccccc23)cc(=O)n(O)c1=O : reported viability at 168 h, 10 µM = ?
Return: 111

Enquiry: Entry CCn1c(Sc2ccccc2Br)cc(=O)n(O)c1=O : reported viability at 168 h, 10 µM = ?
Return: 16

Enquiry: Entry Cn1c(Sc2cccc(Br)c2)cc(=O)n(O)c1=O : reported viability at 168 h, 10 µM = ?
Return: 14

Enquiry: Entry O=c1cc(Sc2ccccc2)[nH]c(=O)n1O : reported viability at 168 h, 10 µM = ?
Return: 108

====

assay: Cytotoxicity against human HEL 299 cells assessed as cell viability at 10 uM incubated for 168 hrs by MTS-based tetrazolium reduction assay relative to control; details: HEL 299 cells, read-out: Activity
endpointLabel: viability at 168 h, 10 µM (%)
Use % as the unit, but write only the number.

Enquiry: Entry Cn1c(Sc2ccc(Br)cc2)cc(=O)n(O)c1=O : reported viability at 168 h, 10 µM = ?
Return: 113

Enquiry: Entry O=c1cc(Sc2cccc(-c3ccc(Cl)cc3)c2)[nH]c(=O)n1O : reported viability at 168 h, 10 µM = ?
Return: 100

Enquiry: Entry COc1ccc(-c2cccc(Sc3cc(=O)n(O)c(=O)[nH]3)c2)cc1F : reported viability at 168 h, 10 µM = ?
Return: 106

Enquiry: Entry O=c1cc(Sc2ccc(C(F)(F)F)cc2)[nH]c(=O)n1O : reported viability at 168 h, 10 µM = ?
Return: 119

Enquiry: Entry O=c1cc(Sc2ccc([N+](=O)[O-])cc2)[nH]c(=O)n1O : reported viability at 168 h, 10 µM = ?
Return: 115

Enquiry: Entry O=c1cc(Sc2ccc(F)cc2)[nH]c(=O)n1O : reported viability at 168 h, 10 µM = ?
Return: 118

Enquiry: Entry Cn1c(Sc2ccccc2Br)cc(=O)n(O)c1=O : reported viability at 168 h, 10 µM = ?
Return: 117

Enquiry: Entry CCn1c(Sc2ccc(Br)cc2)cc(=O)n(O)c1=O : reported viability at 168 h, 10 µM = ?
Return: 16

Enquiry: Entry Cn1c(Sc2ccc(Cl)cc2)cc(=O)n(O)c1=O : reported viability at 168 h, 10 µM = ?
Return: 132

Enquiry: Entry O=c1cc(Sc2cccc(Br)c2)[nH]c(=O)n1O : reported viability at 168 h, 10 µM = ?
Return: 123

Enquiry: Entry Cn1c(Sc2cccc(F)c2)cc(=O)n(O)c1=O : reported viability at 168 h, 10 µM = ?
Return: 125

Enquiry: Entry COc1cccc(Sc2cc(=O)n(O)c(=O)[nH]2)c1 : reported viability at 168 h, 10 µM = ?
Return: 114
